Sourced from a melting point compilation (Tetko et al.; mined from patent text by program, amines drawn as free bases though some values may be those of a salt)

Measured melting point, listed per entry for reference.

These solved cases illustrate the format of a correct answer.
>  <Molecule>
COCCOc1cc2c(cc1-c1ccc(F)cc1)NC(=O)CC(c1cccc(-n3ccnc3)c1)=N2

>  <Measured>
196 to 197 °C

$$$$
>  <Molecule>
Oc1ccc(O)c2c1CC(O)C(O)C2 (centres undefined)

>  <Measured>
221 to 224 °C

$$$$
>  <Molecule>
C(=Cc1ccc(-c2cnc(CSCCOc3ccccc3)o2)cc1)CN1CCCC1

>  <Measured>
73 to 75 °C

$$$$
>  <Molecule>
CC(=O)OCc1ccc(Sc2ccccc2C(=O)N(C)C)c([N+](=O)[O-])c1

>  <Measured>
117 to 118 °C

$$$$
>  <Molecule>
N#Cc1cc(-c2ccoc2)c2ccc(OCc3cccc(-c4ccc(Cl)cc4)n3)cc2c1

>  <Measured>
174 to 177 °C

$$$$
>  <Molecule>
O=C(O)c1cccnn1

>  <Measured>
156 to 158 °C

$$$$

The reported melting point of the molecule N=C(N)NC(=O)OCc1ccccc1 was 120 to 122 °C

Kindly note the recorded melting point for CCCCOc1ccc(S(=O)(=O)NC(=NO)Nc2ccc(Cl)cc2)cc1 , which is 175 to 176 °C

Data point: COc1ccc2[nH]cc(CC(C)(C)[N+](=O)[O-])c2c1 ; melting point = 83 to 85 °C
